Biological target: T1, biotinylated goat anti-human kappa light chain
T1 construct: positive control of the ELISA
Test: ELISA, positive control; further: test concentration or dose not given here
Measured optical density accompanies every entry in the list below.
Enter your answer as a number in OD; do not include the unit.

Known results for binders:
Inquiry: Consider the binder 375_H04 (antibody, V domains shown, Group II) VH: EVQLLESGGGLVQPGGSLRLSCAASGFTFSSYGMHWVRQAPGKGLEWVAGINYNSGYTGYADSVKGRFTISRDNSKNTLYLQMNSLRAEDTAVYYCARAATWHDTHLDYWGQGTLVTVSS VL: DIQMTQSPSSLSASVGDRVTITCRASQSILSYLNWYQQKPGKAPKLVIYAATSRASGVPSRFSGSGSGTDFTLTISSLQPEDFATYYCQQSYSNPLTFGGGTKVEIK and give its recorded optical density.
Reply text: 3.15

Inquiry: Consider the binder 373_D11 (antibody, V domains shown, Group II) VH: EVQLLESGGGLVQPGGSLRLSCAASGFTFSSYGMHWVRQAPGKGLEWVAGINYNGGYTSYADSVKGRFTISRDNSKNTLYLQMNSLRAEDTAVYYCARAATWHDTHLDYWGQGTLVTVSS VL: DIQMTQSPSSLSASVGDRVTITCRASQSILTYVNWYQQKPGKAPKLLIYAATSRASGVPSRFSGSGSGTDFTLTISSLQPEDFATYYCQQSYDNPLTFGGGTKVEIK and give its recorded optical density.
Reply text: 3.2

Next, consider the following binder.
Inquiry: Consider the binder 369_B08 (antibody, V domains shown, Group II) VH: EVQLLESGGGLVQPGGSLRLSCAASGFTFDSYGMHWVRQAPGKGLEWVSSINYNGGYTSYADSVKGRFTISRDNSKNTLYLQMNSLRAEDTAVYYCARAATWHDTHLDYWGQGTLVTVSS VL: DIQMTQSPSSLSASVGDRVTITCRASQSILSYVNWYQQKPGKAPKLLIYAATSRASGVPSRFSGSGSGTDFTLTISSLQPEDFATYYCQQSYESPLTFGGGTKVEIK and give its recorded optical density.
Reply text: 3.29
